As an illustration, consider measured Ki for compounds on Mu-type opioid receptor (Rattus norvegicus).
Sequence (P33535 whole entry): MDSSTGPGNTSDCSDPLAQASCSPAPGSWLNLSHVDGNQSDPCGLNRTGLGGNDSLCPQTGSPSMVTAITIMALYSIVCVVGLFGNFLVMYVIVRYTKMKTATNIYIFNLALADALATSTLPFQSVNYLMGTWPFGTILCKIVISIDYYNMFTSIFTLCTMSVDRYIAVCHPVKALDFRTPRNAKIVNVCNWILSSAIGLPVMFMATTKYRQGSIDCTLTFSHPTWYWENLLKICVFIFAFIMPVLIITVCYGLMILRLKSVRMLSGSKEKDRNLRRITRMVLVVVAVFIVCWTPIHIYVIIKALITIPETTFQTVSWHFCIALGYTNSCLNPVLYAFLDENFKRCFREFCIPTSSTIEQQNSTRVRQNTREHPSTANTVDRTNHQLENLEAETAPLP
Report the value in nM with no unit label.

Below, 2 compounds whose answers are already recorded.
{"columns": ["smiles.string", "measured.on", "Ki, nM"],
 "data": [
  ["CCCN(CCC)C(=O)c1ccc(/C(=N/c2ccccc2OC)N2CCN(CC)CC2)cc1", "Mu-type opioid receptor (Rattus norvegicus)", 3910],
  ["CCCN(CCC)C(=O)c1ccc(/C(=N/c2ccccc2Cl)N2CCN(CC)CC2)cc1", "Mu-type opioid receptor (Rattus norvegicus)", 3930]
]}

Consider now this further compound.
## Task Quickly give me recorded Ki for "COC(=O)c1ccc(/C(=N/c2ccccc2)N2CCCN(CCc3ccccc3)CC2)cc1"
## Result 232

---

# measured.on: Delta-type opioid receptor (Rattus norvegicus, UniProt P33533)
# Sequence (P33533 whole entry): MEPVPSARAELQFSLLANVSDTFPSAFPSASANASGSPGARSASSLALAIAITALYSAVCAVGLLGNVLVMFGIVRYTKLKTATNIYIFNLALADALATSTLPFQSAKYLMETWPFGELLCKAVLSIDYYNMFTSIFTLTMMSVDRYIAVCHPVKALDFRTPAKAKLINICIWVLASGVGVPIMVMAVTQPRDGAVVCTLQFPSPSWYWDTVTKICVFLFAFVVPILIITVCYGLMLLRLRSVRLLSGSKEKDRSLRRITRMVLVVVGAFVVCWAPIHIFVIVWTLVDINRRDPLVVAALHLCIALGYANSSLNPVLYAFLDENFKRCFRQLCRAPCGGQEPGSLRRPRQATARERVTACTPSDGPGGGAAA
# assay.protocol: Inhibition of binding of [3H]-DPDPE to opioid receptor delta 1 from rat brain membrane.
property.measured: Ki (nM)
Report the value in nM with no unit label.

Below, 4 compounds whose answers are already recorded.
{"columns": ["smiles.string", "measured.on", "Ki [nM]"],
 "data": [
  ["CCN(CC)C(=O)c1ccc(/C(=N/c2ccccc2)N2CCN(CCc3cccs3)CC2)cc1", "Delta-type opioid receptor (Rattus norvegicus, UniProt P33533)", 764],
  ["CCN1CCN(/C(=N\\c2ccccc2F)c2ccc(C(=O)N(CC)CC)cc2)CC1", "Delta-type opioid receptor (Rattus norvegicus, UniProt P33533)", 118],
  ["CCN1CCN(/C(=N\\c2ccccc2)c2ccc(C(=O)N(CC)CC)cc2)CC1", "Delta-type opioid receptor (Rattus norvegicus, UniProt P33533)", 16],
  ["CCN(CC)C(=O)c1ccc(/C(=N/c2ccccc2C(F)(F)F)N2CCN(CCc3ccccc3)CC2)cc1", "Delta-type opioid receptor (Rattus norvegicus, UniProt P33533)", 545]
]}

Consider now this further compound.
## Task Quickly give me recorded Ki for "CCN(CC)C(=O)c1ccc(/C(=N/c2ccccc2Cl)N2CCCN(CCc3ccccc3)CC2)cc1"
## Result 29.6

---

As an illustration, consider measured Ki for compounds on Mu-type opioid receptor (Rattus norvegicus).

Below, 6 compounds whose answers are already recorded.
{"columns": ["smiles.string", "Ki"],
 "data": [
  ["CCN(CC)C(=O)c1ccc(/C(=N/c2ccccc2)N2CCN(Cc3ccccc3)CC2)cc1", "> 10 µM"],
  ["CCN1CCN(/C(=N\\c2ccccc2F)c2ccc(C(=O)N(CC)CC)cc2)CC1", "> 1 µM"],
  ["C=CCN1CCN(/C(=N\\c2cccc(Cl)c2)c2ccc(C(=O)N(CC)CC)cc2)CC1", "> 10 µM"],
  ["CCN1CCN(/C(=N\\c2ccccc2Cl)c2ccc(C(=O)N(CC)CC)cc2)CC1", "> 1 µM"],
  ["C=CCN1CCN(/C(=N\\c2ccccc2)c2ccc(C(=O)N(CC)CC)cc2)CC1", "1 µM"],
  ["CCN(CC)C(=O)c1ccc(/C(=N/c2ccccc2)N2CCCN(CCc3ccccc3)CC2)cc1", "0.396 µM"]
]}

## Task Give Ki; test system Mu-type opioid receptor (Rattus norvegicus); compound "CCN1CCN(/C(=N\c2ccccc2)c2ccc(C(=O)N(CC)CC)cc2)CC1"
## Result 1 µM

## Task Give Ki; test system Mu-type opioid receptor (Rattus norvegicus); compound "CCCN1CCN(/C(=N\c2cccc(Cl)c2)c2ccc(C(=O)N(CC)CC)cc2)CC1"
## Result 9.53 µM

## Task Give Ki; test system Mu-type opioid receptor (Rattus norvegicus); compound "CCN(CC)C(=O)c1ccc(/C(=N/c2ccccc2Cl)N2CCN(Cc3ccccc3)CC2)cc1"
## Result > 10 µM
